System: HT-29
experimental protocol: NCI tumour cell line growth inhibition, 48 h
Activity calls are given as the source filed them. No stated cut-off is given here; in the data, active = GI50 up to about 1.1 µM and inactive = higher.
The reply should name one outcome from active, inactive

Use the examples below as a reference point.
compound: Cc1c(-c2ccccc2)c(C#N)c2nnn(-c3ccc(Cl)cc3)c(=O)n12
label class: inactive

compound: Cc1cc2c(=O)c3ccccc3[nH]c2c(C(=O)O)c1C
label class: inactive

compound: CSCCC(NC(=O)Cc1ccc(C(=O)c2ccccc2)cc1)C(=O)O (configuration not stated)
label class: inactive

compound: COc1ccc(CNC(C)C(=O)O)cc1 (configuration not stated)
label class: inactive

compound: CC1=C2CC(C)(C)/C=C\C(=O)/C(C)=C\C3=C[C@H](C)C[C@]3(O2)C1=O
label class: active

IN: For C=C(Cl)C(C)(Cl)CCC(Cl)C(C)C (configuration not stated) , what call appears in the results of this test?
OUT: inactive

IN: Subsequent entry: N=c1c2ccccc2nc2oc3cc([N+](=O)[O-])ccc3n12
OUT: inactive

IN: Thanks! And Cc1ccc([Se](=C(C(=O)c2ccccc2)C(=O)c2ccccc2)c2ccc(C)cc2)cc1 ?
OUT: inactive

IN: Try the compound COc1cc2c(cc1OC)CC(=O)Nc1cc(OC)c(OC)cc1CC2
OUT: inactive

IN: What about Cc1cc(N(CCC#N)CCC#N)ccc1/C=C(\NC(=O)/C=C/c1ccccc1)NC(=O)Nc1ccccc1C ?
OUT: inactive

Cited source: ChEMBL document CHEMBL1201862
